Test system: Rev-RRE complex
run_description: Fluorescence polarization (anisotropy) inhibition of Rev-RRE complex formation
Type: binding, HIV-1
recorded_conditions: Rev-Fl / RRE, fluorescence polarization; read-out: IC50 value for inhibiting complex formation
In this section we review reported pIC50 values for a set of compounds.
Convention used: pIC50 is expressed as -log10 of the molar concentration.

compound	tgt	numeric_value
Cc1ccc2ccc(NC(=O)CCNCCC(=O)NCc3ccc4ccc(=O)[nH]c4n3)nc2n1	Rev-RRE complex	5.70
Cc1ccc2ccc(NC(=O)CCN(CCCCCN(CCC(=O)Nc3ccc4ccc(C)nc4n3)CCC(=O)Nc3ccc4ccc(C)nc4n3)CCC(=O)NCc3ccc4ccc(=O)[nH]c4n3)nc2n1	Rev-RRE complex	6.70
Cc1ccc2ccc(NC(=O)CCNCCC(=O)Nc3ccc4ccc(C)nc4n3)nc2n1	Rev-RRE complex	5.92

# context switch: different compound, same pIC50
Give pIC50 for NCC1OC(OC2C(CO)OC(OC3C(O)C(N)CC(N)C3OC3OC(CN)C(O)C(O)C3N)C2O)C(N)C(O)C1O (stereo not shown) [neomycine B, reference compound]
5.40
